- SYSTEM NAME: EGLN2
- EXPERIMENT DESCRIPTION: cell-based or functional assay
Where no end group is shown, it is not given here.
ASSAY ENDPOINT: Activity (%)*

>  <BINDER>
DTDLDLEMLFPYIPMDDDFQ (not fully specified; printed as DTDLDLEMLFpYIPMDDDFQ) [DTDLDLEMLFpYIPMDDDFQ]

>  <ASSAY ENDPOINT>
Activity (%)*

>  <ASSAY VALUE>
0.63

$$$$
>  <BINDER>
DTDLDVEAIAPYIPADDDFQ (not fully specified; printed as DTDLDVEAIApYIPADDDFQ) [DTDLDVEAIApYIPADDDFQ]

>  <ASSAY ENDPOINT>
Activity (%)*

>  <ASSAY VALUE>
36.6

$$$$
>  <BINDER>
DTDLDLEAKAPYIPADDDFQ [DTDLDLEAKApYIPADDDFQ]

>  <ASSAY ENDPOINT>
Activity (%)*

>  <ASSAY VALUE>
54.6

$$$$
>  <BINDER>
DTDLDAEAIAPYIPADDDFQ [DTDLDAEAIApYIPADDDFQ]

>  <ASSAY ENDPOINT>
Activity (%)*

>  <ASSAY VALUE>
24

$$$$
>  <BINDER>
DTDLDVEATAPYIPADDDFQ (not fully specified; printed as DTDLDVEATApYIPADDDFQ) [DTDLDVEATApYIPADDDFQ]

>  <ASSAY ENDPOINT>
Activity (%)*

>  <ASSAY VALUE>
13.6

$$$$
>  <BINDER>
DTDLDTEAIAPYIPADDDFQ (not fully specified; printed as DTDLDTEAIApYIPADDDFQ) [DTDLDTEAIApYIPADDDFQ]

>  <ASSAY ENDPOINT>
Activity (%)*

>  <ASSAY VALUE>
25.3

$$$$
